// provenance: ChEMBL document CHEMBL3217623

TARGET OR SYSTEM: Acetylcholinesterase (Torpedo californica, UniProt P04058)
Sequence (P04058 whole entry): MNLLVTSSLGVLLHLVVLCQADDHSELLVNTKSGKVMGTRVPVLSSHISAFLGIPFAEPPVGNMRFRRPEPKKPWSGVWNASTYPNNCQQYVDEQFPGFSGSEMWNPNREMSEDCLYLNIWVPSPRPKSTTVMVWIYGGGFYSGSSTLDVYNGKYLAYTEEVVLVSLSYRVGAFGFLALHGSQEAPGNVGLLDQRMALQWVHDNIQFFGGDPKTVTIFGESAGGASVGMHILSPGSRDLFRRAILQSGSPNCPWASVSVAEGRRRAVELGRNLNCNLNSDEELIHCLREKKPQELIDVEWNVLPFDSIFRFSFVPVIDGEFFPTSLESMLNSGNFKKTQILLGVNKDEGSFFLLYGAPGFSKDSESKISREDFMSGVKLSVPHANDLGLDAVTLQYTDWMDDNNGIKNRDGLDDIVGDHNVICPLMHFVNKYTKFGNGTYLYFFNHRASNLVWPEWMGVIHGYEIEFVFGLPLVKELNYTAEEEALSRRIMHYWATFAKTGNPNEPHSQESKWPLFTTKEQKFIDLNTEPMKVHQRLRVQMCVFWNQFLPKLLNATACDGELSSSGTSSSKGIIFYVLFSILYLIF
TEST PROTOCOL: Inhibition of Torpedo californica […] AChE using acetylthiocholine/DTNB as substrate assessed as ROS-induced enzyme inactivation preincubated for 10 mins followed by substrate addition measured every 30 secs for 20 mins in presence of horseradish peroxidase and H2O2
Parameters: species or system Tetronarce californica
Reported pIC50 values for a set of compounds
Please report pIC50 as the negative decimal logarithm of the molar concentration, giving only the number.

STRUCTURE SMILES	pIC50
Cc1cccc(Nc2ccccc2C(=O)NCC(=O)NCCCNc2c3c(nc4cc(Cl)ccc24)CCCC3)c1C	8.51

Enquiry: What value of pIC50 has been recorded for this entry: Cc1cccc(Nc2ccccc2C(=O)NCCC(=O)NCCCNc2c3c(nc4cc(Cl)ccc24)CCCC3)c1C
Return: 7.67

Enquiry: Now this one: Cc1cccc(Nc2ccccc2C(=O)NCCC(=O)NCCCCCCCNc2c3c(nc4ccccc24)CCCC3)c1C
Return: 8.99

Enquiry: Now this one: Cc1cccc(Nc2ccccc2C(=O)NCCCCCC(=O)NCCCNc2c3c(nc4ccccc24)CCCC3)c1C
Return: 7.69

Enquiry: Now this one: Cc1cccc(Nc2ccccc2C(=O)NCCC(=O)NCCCCCCNc2c3c(nc4ccccc24)CCCC3)c1C
Return: 7.40

Enquiry: Now this one: Cc1cccc(Nc2ccccc2C(=O)NCCCCCCCCCCNc2c3c(nc4cc(Cl)ccc24)CCCC3)c1C
Return: 8.73

Enquiry: Now this one: Cc1cccc(Nc2ccccc2C(=O)NCCC(=O)NCCCCNc2c3c(nc4ccccc24)CCCC3)c1C
Return: 8.61

Enquiry: Now this one: Cc1cccc(Nc2ccccc2C(=O)O)c1C
Return: 5.21

Enquiry: Now this one: Cc1cccc(Nc2ccccc2C(=O)NCCCC(=O)NCCCNc2c3c(nc4ccccc24)CCCC3)c1C
Return: 7.64
